System: BT-549
Test: NCI tumour cell line growth inhibition, 48 h
The source made the active and inactive calls. Cut-off read from the data, not from the text of the source: active = GI50 up to about 1.1 µM and inactive = higher.
Could you please report measured GI50 for the items listed next?

In the examples that follow, each entry is paired with its recorded GI50.
| Compound | Measured Target | GI50 |
| --- | --- | --- |
| O=[As](O)(O)c1ccc(Cc2ccc([As](=O)(O)O)cc2)cc1 | BT-549 | 1.18 µM (inactive) |
| CC(C(N)=O)N(C)C(=O)c1cc2ccccc2[n+](Cc2ccccc2)c1 (stereo not drawn) | BT-549 | > 100 µM (inactive) |

Query compound follows.
Report GI50 for COc1ccc(NC(=O)CC(=O)NNC(Sc2ccccc2)c2cc(/N=N/c3ccc(Br)cc3)ccc2O)cc1 (stereo not drawn)
> 10 µM (inactive)

====

Could you please report measured GI50 for the items listed next?
Tested on: UACC-257
Test: NCI tumour cell line growth inhibition, 48 h
Activity calls are given as the source filed them. Cut-off read from the data, not from the text of the source: active = GI50 up to about 1.1 µM and inactive = higher.

In the examples that follow, each entry is paired with its recorded GI50.
| Compound | GI50 |
| --- | --- |
| Nc1ncn(C2C=C(CO)C(O)C2O)c(=O)n1 (stereo not drawn) | > 100 µM (inactive) |
| c1cc(CN2CCNCCNCCNCC2)cc(CN2CCNCCNCCNCC2)c1 | > 100 µM (inactive) |

Query compound follows.
GET GI50 | system: UACC-257 | item: `CCOc1ccc2[nH]c3c(C)c4cc[n+](C)cc4c(C)c3c2c1`
2.97 µM (inactive)

====

Test system: NCI-H23
Test: NCI tumour cell line growth inhibition, 48 h
Calls of active or inactive are those of the source. Cut-off read from the data, not from the text of the source: active = GI50 up to about 1.1 µM and inactive = higher.
Bench note: report the call from YES = active, NO = inactive

Field: example entries. Status: answers known.
| Compound | Class |
| --- | --- |
| CON(C)C(=O)C(Cc1ccccc1)NC(=O)OCc1ccccc1 (centres undefined) | NO |
| CCCCc1ccc(Nc2nc(Cl)c3ncn(C4CC(Oc5ccc(C)cc5)C(COc5ccc(C)cc5)O4)c3n2)cc1 (centres undefined) | NO |
| C=CCc1cccc2cc(C(N)=O)c(=N)oc12 | NO |

What did the test return for `Cc1ccc(N2C(=O)/C(=C/c3ccc(N(CCC#N)CCC#N)cc3C)N=C2c2cc([N+](=O)[O-])ccc2Cl)cc1` ?
NO

What did the test return for `COC(=O)c1c[nH]cc1CCc1c[nH]cc1C(=O)OC` ?
NO

What did the test return for `c1ccc2sc(C3(N4CCCCC4)CCCCCC3)cc2c1` ?
NO

What did the test return for `Cn1c(=O)n(C2(C)CSC2)c2ccccc21` ?
NO

What did the test return for `CCOP(=Nc1ccc(N(C)C)cc1)(OCC)OCC` ?
NO

What did the test return for `Nc1ccc2nc(-c3cccc(Cl)c3)cc(O)c2c1` ?
NO

====

Test system: HOP-62
Test: NCI tumour cell line growth inhibition, 48 h
Activity calls are given as the source filed them. Cut-off read from the data, not from the text of the source: active = GI50 up to about 1.1 µM and inactive = higher.
Bench note: report the call from Yes for active, No for inactive

What did the test return for `Cc1ccccc1NC(=O)C(=O)CC(=O)c1sc(Nc2ccccc2[N+](=O)[O-])nc1C` ?
No

What did the test return for `COc1ccc(SS(=O)(=O)c2ccc(OC)cc2)cc1` ?
No

What did the test return for `COc1cc(N(C)C)ccc1C=c1c2ccccc2n2c1cc(-c1ccccc1)[n+]2C` ?
Yes

What did the test return for CCCCc1ccc(Nc2nc(Cl)c3ccn(C4CC(Oc5ccc(C)cc5)C(COc5ccc(C)cc5)O4)c3n2)cc1 (centres undefined) ?
No

====

Test system: SK-MEL-28
Test: NCI tumour cell line growth inhibition, 48 h
Activity calls are given as the source filed them. No stated cut-off is given here; in the data, active = GI50 up to about 1.1 µM and inactive = higher.
Could you please report measured GI50 for the items listed next?

In the examples that follow, each entry is paired with its recorded GI50.
| Compound | Measured Target | GI50 |
| --- | --- | --- |
| N#CC12C(=O)N=C(N)C1(C#N)C(c1ccco1)NC1=C2CCCC1 (stereo unspecified) | SK-MEL-28 | > 100 µM (inactive) |
| O=[N+]([O-])c1ccc(Cl)c(C2SCc3nc4ccccc4n32)c1 (stereo unspecified) | SK-MEL-28 | 40.6 µM (inactive) |
| CC(Oc1ccccc1Cl)C(=O)NN1C(=O)CSC1c1ccc(Cl)cc1 (stereo unspecified) | SK-MEL-28 | 23 µM (inactive) |

I need GI50 for every entry listed below, if you could help.
1. O=C(N/N=C(COc1ccccc1Cl)\N=C\c1ccncc1)c1ccncc1
2. CCN1CCC(CNC(=O)c2ccc(N)cc2)N1CC (stereo unspecified)
3. O=C(/C=C/c1ccc(Cl)cc1)Oc1ccc(/C=C2\CCCCC2=O)cc1

1. > 100 µM (inactive)
2. > 100 µM (inactive)
3. > 100 µM (inactive)

====

System: IGROV-1
Test: NCI tumour cell line growth inhibition, 48 h
Calls of active or inactive are those of the source. No stated cut-off is given here; in the data, active = GI50 up to about 1.1 µM and inactive = higher.
Bench note: report the call from active, inactive

Field: example entries. Status: answers known.
| Compound | Class |
| --- | --- |
| N=C(N)SCc1ccc2c(c1)S(=O)(=O)c1ccccc1O2 | inactive |
| O=C(/C=C/c1c[nH]c2ccccc12)c1ccccc1O | inactive |
| CC12ON=C(c3ccccc3)N1C=CN1C(c3ccccc3)=NOC12 (stereo not given) | inactive |
| O=[As](O)(O)c1ccc(Cc2ccc([As](=O)(O)O)cc2)cc1 | active |
| CC(=O)O[C@@H]1C=C(C)[C@H](CBr)O[C@@]2(C)CC[C@H](Br)C(C)(C)[C@H]12 | inactive |

What did the test return for `Cc1cc(NCc2ccccc2)c2ccccc2[n+]1CCCCCCCCCC[n+]1c(C)cc(NCc2ccccc2)c2ccccc21.[O-][Cl+3]([O-])([O-])[O-].[O-][Cl+3]([O-])([O-])[O-]` ?
inactive

====

Test system: SK-MEL-2
Test: NCI tumour cell line growth inhibition, 48 h
Calls of active or inactive are those of the source. No stated cut-off is given here; in the data, active = GI50 up to about 1.1 µM and inactive = higher.
Measured Quantity: GI50

| Molecule | Readout Value |
| --- | --- |
| Cc1c(CN2CCN(C)CC2)c(CN2CCN(C)CC2)c(C)n1-c1ccc(Cl)cc1 | 21.3 µM (inactive) |
| OC[C@H]1O[C@@H]2O[C@@](COCc3ccccc3)([C@H](OCc3ccccc3)[C@H]2O)[C@@H]1OCc1ccccc1 | 16.3 µM (inactive) |
| CC(=O)OC(C)(C)C1CCC(C)(C(O)COc2ccc(CCNC(=O)c3ccccc3)cc2)O1 (stereo not given) | > 100 µM (inactive) |

I need GI50 for every entry listed below, if you could help.
1. CC(C)CC(NC(=O)OCc1ccccc1)C(=O)NCCCCC(N)C(=O)NC(CCCCNC(=O)C(CC(C)C)NC(=O)OCc1ccccc1)C(=O)NC(CCCCNC(=O)C(CC(C)C)NC(=O)OCc1ccccc1)C(=O)NC(CCCCNC(=O)C(CC(C)C)NC(=O)OCc1ccccc1)C(=O)NC(CCCCNC(=O)C(CC(C)C)NC(=O)OCc1ccccc1)C(=O)NC(CCCCNC(=O)C(CC(C)C)NC(=O)OCc1ccccc1)C(=O)O (stereo not given)
2. O=C(O)CN(c1ccccc1)S(=O)(=O)c1ccc(NC(=O)c2ccccc2)cc1
3. NC(=O)N=C(N(Cc1ccccc1)Cc1ccccc1)N(Cc1ccccc1)Cc1ccccc1
4. CN(C)/C=N\c1cc[nH]c(=O)n1

1: > 100 µM (inactive); 2: > 100 µM (inactive); 3: > 100 µM (inactive); 4: > 100 µM (inactive)

====

Tested on: OVCAR-3
Test: NCI tumour cell line growth inhibition, 48 h
Calls of active or inactive are those of the source. Rule as the data show it: active = GI50 up to about 1.1 µM and inactive = higher.
Bench note: report the call from active, inactive

| Compound | Measured Target | Class |
| --- | --- | --- |
| O=C1c2ccccc2C(=O)N1CCCC(=O)n1cc(F)c(=O)[nH]c1=O | OVCAR-3 | inactive |
| c1cc(-c2cscc2-c2ccsc2)cs1 | OVCAR-3 | inactive |

What did the test return for `C/C(=N\Nc1nc2ccccc2n1C)c1ccc2ccccc2n1` ?
active

What did the test return for CC(=O)C1=C(C)N(c2ccc(C)cc2)C2(O)C=CC(=O)C3C(=O)N(c4ccccc4)C(=O)C132 (stereo unspecified) ?
inactive

What did the test return for `O=[As](O)(O)c1ccc(Cc2ccc([As](=O)(O)O)cc2)cc1` ?
active

What did the test return for `CS(=O)(=O)OCCN(CCOS(C)(=O)=O)c1ccc(/C=N/c2ccc(-c3csc(Cc4ccccc4)n3)cc2)c(Cl)c1` ?
inactive

What did the test return for CC(C)NCC(O)COC(=O)c1cccs1 (stereo unspecified) ?
inactive

What did the test return for CO[C@@]12[C@H](COC(N)=O)C3=C(C(=O)C(C)=C(N)C3=O)N1C[C@H]1[C@@H]2N1C (stereo partly specified) [PORFIROMYCIN] ?
inactive

What did the test return for `COC(=O)c1cc(OC)c(OC)c(OC)c1-c1cc2c(cc1C=O)OCO2` ?
inactive

What did the test return for O=C(O)Cc1cccc2c1OC(c1ccccc1)C(C(=O)c1ccccc1)C2=O (stereo unspecified) ?
inactive

What did the test return for COCOC1/C=C/CCCC#C[C@H](C)C(=O)CC1 (stereo partly specified) ?
inactive
